studySystem: T1, human IL-6 (human, UniProt P05231 30-212)
T1 construct: also called interleukin-6
T1 sequence (P05231 30-212 limits assumed): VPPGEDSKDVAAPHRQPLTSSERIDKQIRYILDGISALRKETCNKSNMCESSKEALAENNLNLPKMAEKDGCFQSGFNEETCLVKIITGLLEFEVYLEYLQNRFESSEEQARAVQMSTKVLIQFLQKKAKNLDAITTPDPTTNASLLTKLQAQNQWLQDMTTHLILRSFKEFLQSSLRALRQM
methodSummary: SPR (Biacore T200), purified antibody captured on Protein A, IL-6 flowed over, 37 C
valueType: kon (M⁻¹ s⁻¹)
Form entry: value (M⁻¹ s⁻¹) — number only.

Guide cases for kon, answers given:
>>> numericreadout("anti-IL-6 antibody, heavy chain S35H, G66D / light chain WT (antibody, human IgG1, V domains shown, Derived as m2; Engineered human IgG1) VH: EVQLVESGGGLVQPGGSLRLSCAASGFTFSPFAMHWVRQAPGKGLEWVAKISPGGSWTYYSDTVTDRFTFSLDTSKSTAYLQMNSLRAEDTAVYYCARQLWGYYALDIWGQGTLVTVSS VL: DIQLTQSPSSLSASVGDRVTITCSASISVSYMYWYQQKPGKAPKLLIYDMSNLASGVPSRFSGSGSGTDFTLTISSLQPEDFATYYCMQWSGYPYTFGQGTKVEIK")
"1.77e+06"
>>> numericreadout("anti-IL-6 antibody, heavy chain T65Q, G66D / light chain WT (antibody, human IgG1, V domains shown, Derived as m2; Engineered human IgG1) VH: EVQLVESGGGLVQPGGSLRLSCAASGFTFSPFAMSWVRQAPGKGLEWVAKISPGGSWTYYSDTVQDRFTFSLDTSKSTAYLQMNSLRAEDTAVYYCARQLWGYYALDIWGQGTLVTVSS VL: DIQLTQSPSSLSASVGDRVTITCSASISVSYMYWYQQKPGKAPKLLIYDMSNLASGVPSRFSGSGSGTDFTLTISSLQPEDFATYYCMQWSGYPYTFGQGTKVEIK")
"1.77e+06"

Request: Identify kon associated with the binder anti-IL-6 antibody, heavy chain T63E, G66D / light chain WT (antibody, human IgG1, V domains shown, Derived as m2; Engineered human IgG1) VH: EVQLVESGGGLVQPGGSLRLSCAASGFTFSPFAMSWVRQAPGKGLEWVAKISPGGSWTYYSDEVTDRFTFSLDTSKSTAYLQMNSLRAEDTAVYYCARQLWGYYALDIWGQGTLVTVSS VL: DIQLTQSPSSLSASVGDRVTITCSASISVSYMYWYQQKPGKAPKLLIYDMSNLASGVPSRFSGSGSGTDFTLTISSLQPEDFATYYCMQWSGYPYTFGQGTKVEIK
Response: 1.72e+06
